- EXPERIMENT_DESCRIPTION: Terminal half life in dogs at the dose of 15 mg/kg.
- Format: ADME, organism-based, Canis lupus familiaris
- Design: dose 15 mg/kg
- CONDITIONS: dog, in vivo
RECORDED_METRIC: half-life (h)
Respond numerically; units are h and should not be typed.

Note to self: half-life recorded for `CO/N=C(\C(=O)N[C@@H]1C(=O)N2C(C(=O)[O-])=C(C[n+]3ccc4sccc4c3)CS[C@H]12)c1csc(N)n1` was 1.75

---

- System: Enterobacter cloacae
- EXPERIMENT_DESCRIPTION: Antibacterial activity against Enterobacter cloacae EB5
- Type: functional
- CONDITIONS: Enterobacter cloacae; read-out: MIC
The entries below come with measured MIC values attached.
Respond numerically; units are µg/mL and should not be typed.

• CO/N=C(\C(=O)N[C@@H]1C(=O)N2C(C(=O)[O-])=C(C[n+]3ccccc3)CS[C@H]12)c1csc(N)n1 = 0.06

Item: `CO/N=C(\C(=O)N[C@@H]1C(=O)N2C(C(=O)[O-])=C(C[n+]3cccc4sccc43)CS[C@H]12)c1csc(N)n1` | System: Enterobacter cloacae | MIC: 0.25

Item: `CO/N=C(\C(=O)N[C@@H]1C(=O)N2C(C(=O)[O-])=C(C[n+]3cccc4ccc(O)cc43)CS[C@H]12)c1csc(N)n1` | System: Enterobacter cloacae | MIC: 0.25

Item: `CO/N=C(\C(=O)N[C@@H]1C(=O)N2C(C(=O)[O-])=C(C[n+]3cc(C)cc(C)c3)CS[C@H]12)c1csc(N)n1` | System: Enterobacter cloacae | MIC: 0.125

Item: `CO/N=C(\C(=O)N[C@@H]1C(=O)N2C(C(=O)[O-])=C(C[n+]3ccc4[nH]c(-c5ccccc5)nc4c3)CS[C@H]12)c1csc(N)n1` | System: Enterobacter cloacae | MIC: 0.5

Item: `CO/N=C(\C(=O)N[C@@H]1C(=O)N2C(C(=O)[O-])=C(C[n+]3cccc4occc43)CS[C@H]12)c1csc(N)n1` | System: Enterobacter cloacae | MIC: 0.5

Item: `CO/N=C(\C(=O)N[C@@H]1C(=O)N2C(C(=O)[O-])=C(C[n+]3cccc4c(N)cccc43)CS[C@H]12)c1csc(N)n1` | System: Enterobacter cloacae | MIC: 0.06
